pIC50 tested on Acetylcholinesterase (Homo sapiens): recorded values
Sequence (P22303 whole entry): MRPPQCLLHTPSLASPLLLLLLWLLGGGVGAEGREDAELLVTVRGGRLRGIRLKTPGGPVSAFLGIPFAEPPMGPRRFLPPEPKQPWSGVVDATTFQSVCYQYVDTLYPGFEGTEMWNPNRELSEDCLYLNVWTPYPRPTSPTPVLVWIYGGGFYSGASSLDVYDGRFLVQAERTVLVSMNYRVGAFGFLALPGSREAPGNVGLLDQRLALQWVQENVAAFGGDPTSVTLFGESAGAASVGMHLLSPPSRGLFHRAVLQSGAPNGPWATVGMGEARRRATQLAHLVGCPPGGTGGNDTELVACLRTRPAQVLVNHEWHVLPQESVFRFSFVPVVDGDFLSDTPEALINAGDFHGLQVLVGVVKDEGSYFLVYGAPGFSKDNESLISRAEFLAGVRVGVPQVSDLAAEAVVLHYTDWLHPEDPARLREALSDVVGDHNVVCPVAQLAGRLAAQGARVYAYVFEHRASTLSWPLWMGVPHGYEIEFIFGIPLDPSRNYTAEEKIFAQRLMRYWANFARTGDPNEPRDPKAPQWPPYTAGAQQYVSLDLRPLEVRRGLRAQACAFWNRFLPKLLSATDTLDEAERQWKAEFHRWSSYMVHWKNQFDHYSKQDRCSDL
Please note pIC50 is a logarithmic value: minus log10 of concentration in mol/L. Answer with that number alone.

1) CC(=O)n1c2c(c3ccccc31)Oc1nc(C)[nH]c(=O)c1C2c1ccccc1 (configuration not stated) | 5.27
2) COc1ccc(C2c3c(nc(C)[nH]c3=O)Oc3c2n(C(C)=O)c2ccccc32)cc1[N+](=O)[O-] (configuration not stated) | 4.04
3) COc1cccc(C2c3c(nc(C)[nH]c3=O)Oc3c2n(C(C)=O)c2ccccc32)c1 (configuration not stated) | 4.77
4) COc1ccc(C2c3c(nc(C)[nH]c3=O)Oc3c2n(C(C)=O)c2ccccc32)cc1 (configuration not stated) | 3.69
5) CC(=O)n1c2c(c3ccccc31)Oc1nc(C)[nH]c(=O)c1C2c1ccccc1[N+](=O)[O-] (configuration not stated) | 4.32

In: Consider the compound CC(=O)n1c2c(c3ccccc31)Oc1nc(C)[nH]c(=O)c1C2c1ccc(C)cc1 (configuration not stated) . State its measured pIC50.
Out: 3.56

In: Given the compound CC(=O)n1c2c(c3ccccc31)Oc1nc(C)[nH]c(=O)c1C2c1ccc(Br)cc1 (configuration not stated) , write its reported pIC50.
Out: 3.94
